Target: wild-type mouse TMEM16A (Mus musculus, UniProt Q8BHY3)
Construct: expressed in transfected cells; host or cells: HEK293T
Sequence (Q8BHY3 whole entry): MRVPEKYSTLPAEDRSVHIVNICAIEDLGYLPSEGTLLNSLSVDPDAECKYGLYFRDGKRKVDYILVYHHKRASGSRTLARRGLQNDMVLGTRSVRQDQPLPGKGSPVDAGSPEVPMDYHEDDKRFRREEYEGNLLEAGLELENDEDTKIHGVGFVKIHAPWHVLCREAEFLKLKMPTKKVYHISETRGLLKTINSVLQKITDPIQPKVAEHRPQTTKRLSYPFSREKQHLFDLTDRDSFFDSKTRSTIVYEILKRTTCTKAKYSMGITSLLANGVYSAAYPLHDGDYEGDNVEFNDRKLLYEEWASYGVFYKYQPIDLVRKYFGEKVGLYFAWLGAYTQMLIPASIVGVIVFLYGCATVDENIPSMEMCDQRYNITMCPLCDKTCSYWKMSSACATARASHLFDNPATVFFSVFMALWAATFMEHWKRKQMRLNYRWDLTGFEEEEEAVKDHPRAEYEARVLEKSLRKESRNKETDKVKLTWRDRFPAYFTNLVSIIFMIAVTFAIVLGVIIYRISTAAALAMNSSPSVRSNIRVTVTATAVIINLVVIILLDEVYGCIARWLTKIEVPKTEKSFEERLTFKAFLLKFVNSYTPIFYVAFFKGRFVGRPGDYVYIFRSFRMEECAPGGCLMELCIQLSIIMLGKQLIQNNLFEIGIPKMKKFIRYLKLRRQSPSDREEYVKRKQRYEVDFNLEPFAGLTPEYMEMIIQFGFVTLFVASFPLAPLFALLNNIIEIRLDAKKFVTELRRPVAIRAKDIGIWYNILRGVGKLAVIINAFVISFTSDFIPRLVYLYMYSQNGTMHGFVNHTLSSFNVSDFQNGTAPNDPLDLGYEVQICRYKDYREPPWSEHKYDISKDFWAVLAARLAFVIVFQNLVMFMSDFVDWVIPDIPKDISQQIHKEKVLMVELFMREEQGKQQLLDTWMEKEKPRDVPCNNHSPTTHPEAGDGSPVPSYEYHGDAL
Assay: Inside-out patch recording of 1PBC block, wild-type TMEM16A
Format: cell-based
Conditions: 2 μM Ca2+; 80 mV; empirical Hill fit of data scaled to open probability
Reported Property: pIC50
As a rule, pIC50 stands for the negative log10 of the concentration, concentration in M.

Quick one: pIC50 for N#Cc1c(C(F)(F)F)cc(O)n2c1nc1ccccc12 [1PBC] ?
5.71

---

Target: mouse TMEM16A mutant V543A (Mus musculus, UniProt Q8BHY3, V543A)
Construct: expressed in transfected cells; host or cells: HEK293T
Sequence (Q8BHY3 whole entry V543A): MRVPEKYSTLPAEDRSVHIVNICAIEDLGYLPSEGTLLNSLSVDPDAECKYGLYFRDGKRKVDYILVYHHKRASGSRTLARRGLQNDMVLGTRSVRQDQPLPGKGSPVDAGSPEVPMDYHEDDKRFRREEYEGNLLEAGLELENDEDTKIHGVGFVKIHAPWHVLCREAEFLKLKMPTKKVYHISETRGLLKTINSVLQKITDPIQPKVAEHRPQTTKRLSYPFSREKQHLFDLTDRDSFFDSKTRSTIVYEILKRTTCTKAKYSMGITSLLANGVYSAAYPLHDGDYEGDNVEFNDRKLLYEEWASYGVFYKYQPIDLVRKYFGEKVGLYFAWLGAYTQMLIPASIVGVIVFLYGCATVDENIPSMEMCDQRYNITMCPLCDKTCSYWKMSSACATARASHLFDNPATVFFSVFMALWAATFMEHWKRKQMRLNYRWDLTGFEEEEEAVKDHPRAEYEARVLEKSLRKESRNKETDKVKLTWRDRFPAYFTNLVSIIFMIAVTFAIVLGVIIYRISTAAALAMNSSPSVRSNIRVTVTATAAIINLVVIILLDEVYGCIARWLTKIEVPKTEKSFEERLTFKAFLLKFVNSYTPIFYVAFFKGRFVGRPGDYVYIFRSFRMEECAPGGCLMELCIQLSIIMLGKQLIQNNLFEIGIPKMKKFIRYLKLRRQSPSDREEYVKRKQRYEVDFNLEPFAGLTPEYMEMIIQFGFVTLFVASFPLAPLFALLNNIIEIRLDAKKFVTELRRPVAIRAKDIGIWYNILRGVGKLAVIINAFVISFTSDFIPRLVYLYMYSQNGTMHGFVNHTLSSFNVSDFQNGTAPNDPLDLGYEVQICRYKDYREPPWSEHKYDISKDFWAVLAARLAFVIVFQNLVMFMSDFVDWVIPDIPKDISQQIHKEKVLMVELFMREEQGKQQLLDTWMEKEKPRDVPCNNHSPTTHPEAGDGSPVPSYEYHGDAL
Test: Inside-out patch recording of 1PBC block, mutant V543A
Assay type: cell-based
Details: 80 mV; 15 µM Ca2+
Reported Property: IC50 (µM)
Field format: number, assumed µM, no unit text.

Quick one: IC50 for N#Cc1c(C(F)(F)F)cc(O)n2c1nc1ccccc12 ?
8.02

Ref: paper PMC9120017
